methodNotes: in vivo
Design: species or system Balb/c nu/nu mice
conditionInfo: female, Balb/c nu/nu, mouse, iv, 1 MBq, total radioactivity, Tumor-to-organ ratio, Kidney
Where a SMILES comes first, the peptide text is derived from it. [ ]: non-standard residue; d: D form. Tyr(3-I) = N[C@@H](Cc1ccc(O)c(I)c1)C(=O)O
measureName: tissue to tissue ratio at 0.25 h

compound	measureName	observed
CC[C@H](C)[C@H](N)C(=O)N1CCC[C@H]1C(=O)N[C@@H](CC(C)C)C(=O)N1CCC[C@H]1C(=O)N1CCC[C@H]1C(=O)N1CCC[C@H]1C(=O)N[C@@H](CO)C(=O)N[C@@H](CCCNC(=N)N)C(=O)N1CCC[C@H]1C(=O)N[C@@H](Cc1ccccc1)C(=O)N[C@@H](Cc1ccccc1)C(=O)N[C@@H](CCCCN)C(=O)N[C@@H](Cc1ccc(O)c(I)c1)C(N)=O [^131I-labeled PDGFR-P1] (H-IPLPPPSRPFFK[Tyr(3-I)]-NH2; N-terminus assumed)	tissue to tissue ratio at 0.25 h	0.299

Reference for the values: paper PMC3591530
